Assay: Miscibility evaluation: blue light blocking compound dissolved in HEMA and in a silicone hydrogel contact lens composition
Format: physicochemical
Details: dissolved in 2-hydroxyethyl methacrylate (HEMA); the higher the value, the greater the miscibility
compounds and their reported miscibility in HEMA
Note: a bare number is incomplete; add the unit.

Illustrative cases are given below, each with its answer.
C=C(C)C(=O)OCCOC(=O)C(=Cc1ccc(N(C)C)cc1)C(=O)OCCOC(=O)C(=C)C; 67%
C=C(C)C(=O)OCCNC(=O)/C(=C/c1ccc(N(C)C)cc1)C(=O)OC; 47%
C=C(C)C(=O)OCCOC(=O)/C(=C/c1ccc(N(C)C)cc1)C(=O)OC; 25%

// below: miscibility in HEMA requested for another compound
Which miscibility in HEMA value belongs to C=CS(=O)(=O)c1cc(OC)c(/N=N/C2C(=O)N(c3ccc(S(=O)(=O)[O-])cc3)N=C2C)cc1C.[Na+] (stereo not shown) [Comparative Example 1, reference compound] ?
5%
